- Test system: SK-MEL-28 melanoma
- assay: NCI-60 one-dose screen, 48 h
- assay conditions: 10 µM unless noted
- Experimental: Growth inhibition of the SK-MEL-28 human tumor cell line is measured as a screen for anti-cancer activity. Cells are grown in 96 well plates and exposed to the test compound for 48 hours. Compounds are tested at a single concentration, which is 10^-5 M for most compounds. The reported endpoint is percent growth (GI% or GIPRCNT), where numbers from 0 - 100% represent growth inhibition, and numbers from -100% - 0 represent cell death. For example, a value of 40 represents 60% growth inhibition. […]
This is part of a sample that, as a whole, favours compounds with a hit. Of some 83,000 tested, about 20% had one in any assay. Calls of active or inactive are those of the source. The calls were made as follows: active = growth percent below 10; inactive = the rest.
Outcome codes: active, inactive

{"columns": ["molecule", "label class"],
 "data": [
  ["O=C(NNC(=O)c1ccc(OCc2nc3ccc(Cl)cc3[nH]2)cc1)Nc1ccc(Cl)c(C(F)(F)F)c1", "inactive"],
  ["CC[C@@]12CC(C(=O)OC)=C3Nc4cc5c(cc4[C@@]34CCN(C[C@H]3O[C@H]31)[C@@H]24)[C@@H]1[C@H](O5)[C@@H](O)[C@@]2(CC)CC(C(=O)OC)=C3Nc4cc(O)ccc4[C@@]34CCN1[C@@H]24", "active"],
  ["O=C1c2cccc3c(N4CCN(Cc5ccccc5)CC4)ccc(c23)C(=O)N1c1cccc(-c2nn(-c3ccccc3)cc2-c2nc3ccccc3s2)c1", "inactive"],
  ["CC1CCc2c(sc3nc(SCC(=O)c4cccc(Br)c4)n(-c4ccccc4)c(=O)c23)C1 (stereo not given)", "inactive"],
  ["CCCCCCCOc1ccc(S(=O)(=O)Nc2ccc(C)c(F)c2C(=O)O)cc1", "inactive"],
  ["O=C(CSc1nc2c(c(=O)[nH]1)CCCC2)Nc1ccccc1C(=O)O", "inactive"],
  ["COc1cc(/C=C/C(=O)c2cnn(-c3cc(=O)[nH]c4ccccc34)c2C)cc(OC)c1OC", "inactive"],
  ["COc1cc(/C=N/NC(=O)c2ccc(OCc3nc4ccc(C)cc4[nH]3)cc2)cc(OC)c1OC", "inactive"],
  ["COc1ccc(-c2nc3ccccc3n2CC(=O)N=Nc2c(O)[nH]c3ccc(Br)cc23)cc1", "inactive"],
  ["CC(C)C[C@H](NC(=O)[C@@H]1CCCCCCCCCCC(=O)N[C@@H](CC(=O)N2CCC[C@@H]2C2CCCC2)C(=O)N1)B(O)O", "active"],
  ["CS(=O)(=O)Nc1cncc(-c2ccc3ncnc(NCc4ccccc4)c3c2)c1", "inactive"],
  ["Cc1ccc(C(=O)Nc2cc(-n3ccnc3)cc(C(F)(F)F)c2)cc1-n1cc(-c2cnc3cccnn23)nn1", "inactive"],
  ["CCOc1ccccc1[C@H]1C(C(=O)c2ccc(Cl)cc2)C2(N[C@@H]1c1ccccc1)C(=O)Nc1ccccc12 (stereo not given in full)", "inactive"],
  ["COc1ccc(C(=O)C[n+]2cccc3c4ccccc4ccc32)cc1", "inactive"],
  ["CCOC(=O)c1ccc(NC(=S)NC(=O)c2ccc(NC(=O)C(C)C)cc2OC)cc1", "inactive"],
  ["CN(C)c1nc(NCCNS(=O)(=O)c2ccc(C3=Nc4c(N)nc(N)nc4NC(c4ccc(C(F)(F)F)cc4)C3)cc2)nc(N2CCOCC2)n1 (stereo not given)", "inactive"],
  ["COc1cc2cc(C(=O)N3C[C@@H](CCl)c4c3cc(OC(=O)N(CCC(=O)N3CCN(C)CC3)[C@H]3CCSSC3)c3ccccc43)[nH]c2c(OC)c1OC", "active"],
  ["c1n[nH]cc1-c1nc2ccc3[nH]ncc3c2c2c1CC1(CC2)COC1", "inactive"],
  ["COc1ccc2c(c1)N=c1c-2cc2c(O)[nH]c(=S)n2c1=O", "inactive"],
  ["COc1cc(NC(=O)CSc2nnc(-c3ccc(-c4nc5ccc(Cl)cc5[nH]4)cc3)o2)cc(OC)c1OC", "inactive"],
  ["O=C(NC(=S)N1CCN(c2ncnc3c2cnn3-c2ccccc2)CC1)c1ccc(Br)cc1", "inactive"],
  ["Cc1nn(-c2ccccc2)c2ncn(CC(=O)N/N=C/c3ccccc3O)c(=O)c12", "inactive"],
  ["O=C(CSc1nc2sc3c(c2c(=O)n1-c1ccc(Cl)cc1)CCCC3)NNC(=O)c1ccc(Br)cc1", "inactive"],
  ["Cc1ccc2c(c1)/C(=C/C(=O)c1cc3ccccc3oc1=O)C(=O)N2", "inactive"],
  ["COc1ccc(-c2cc(C)nc3[nH]c(=O)sc23)cc1", "inactive"],
  ["CCOc1ccccc1NC(=O)N/C(N)=N/c1nc2ccccc2s1", "inactive"],
  ["Cc1ccc(C(=O)Nc2cc(-c3ccncc3)cc(C(F)(F)F)c2)cc1C#Cc1cnc2cccnn12", "inactive"],
  ["COc1cc(-c2ccc3ncnc(N4CCc5ccc(Cl)cc54)c3c2)cnc1Cl", "inactive"],
  ["O=C(N/N=C/c1occc1Br)c1[nH]c2ccc(Br)cc2c1-c1ccccc1", "active"],
  ["COc1ccc(Nc2ncnc3sc4c(c23)CCN(Cc2ccccc2)C4)cc1", "inactive"],
  ["COc1ccc2[nH]c(=O)c(CSc3ccccc3Nc3nccc(-c4ccc(C(F)(F)F)cc4)n3)cc2c1", "inactive"],
  ["Cc1ccc(C(=O)Nc2cccc(C(=O)NC(=S)Nc3ccc(S(N)(=O)=O)cc3)c2)cc1", "inactive"],
  ["Cc1ccc(C(=O)Nc2cc(-c3ccccc3)cc(C(F)(F)F)c2)cc1C#Cc1cnc2cccnn12", "inactive"],
  ["CC(C)(C)c1cc(-c2cc(-c3ccccc3)[nH]c(=O)c2C#N)cc(C(C)(C)C)c1", "inactive"],
  ["CC1=C(C(=O)OCc2ccccc2)C(c2ccc(N(C)C)cc2)n2c(nc3ccccc32)N1 (stereo not given)", "inactive"]
]}

====

- Tested on: NCI/ADR-RES ovarian
- assay: NCI-60 one-dose screen, 48 h (100 = growth as untreated, 0 = no growth, -100 = all killed)
- assay conditions: 10 µM unless noted
About 83,000 compounds went through this panel and 20% of them were active in at least one assay; those are over-represented in the sample as a whole.
The compounds listed here are annotated with their growth.
measure: growth (%)

{"columns": ["compound", "target desc", "experimental result"],
 "data": [
  ["COC(=O)c1c(C(=O)OC)c2ccc3c4ccccc4ccc3n2c1C(=O)OC", "NCI/ADR-RES ovarian", 112],
  ["O=C(Nc1ccc(-c2ccc3c(c2)NC(=O)/C3=C\\c2ccc[nH]2)cc1)Nc1cccc(Cl)c1", "NCI/ADR-RES ovarian", -37.9],
  ["c1ccc(CSc2nnc(-c3ccc4nc(-c5ccccc5)[nH]c4c3)o2)cc1", "NCI/ADR-RES ovarian", -40.3],
  ["O=Cc1cncc(-c2ccc3ncnc(N4CCc5cc(F)c(Cl)cc54)c3c2)c1", "NCI/ADR-RES ovarian", 34.8],
  ["COc1cc(CNC(=O)C[C@H](C)CCC=C(C)C)ccc1OCc1cn(-c2cccc(C(F)(F)F)c2)nn1", "NCI/ADR-RES ovarian", 44],
  ["Cc1nn(-c2ccccc2)c2ncn(CC(=O)N/N=C/c3ccccc3O)c(=O)c12", "NCI/ADR-RES ovarian", 23.3],
  ["Clc1ccc(CNc2nc(SCCN3CCOCC3)nc3c2cnn3CC(Cl)c2ccc(Br)cc2)cc1 (centres undefined)", "NCI/ADR-RES ovarian", 34.5],
  ["O=c1c(-c2nc(-c3ccccc3)c(-c3ccccc3)[nH]2)coc2ccc(F)cc12", "NCI/ADR-RES ovarian", 51.4],
  ["C#CCN(C)CCCOc1ccc(N(C)C(=O)c2cc(C(C)C)c(O)cc2O)cc1Cl", "NCI/ADR-RES ovarian", -5.62]
]}

====

- Test system: RPMI-8226 leukemia
- assay: NCI-60 one-dose screen, 48 h
- assay conditions: 10 µM unless noted
This is part of a sample that, as a whole, favours compounds with a hit. Of some 83,000 tested, about 20% had one in any assay. Activity calls are given as the source filed them. How the source made its calls: active means growth percent below 10; inactive means the rest.
Outcome codes: true (1) for active, false (0) for inactive

{"columns": ["compound", "label class"],
 "data": [
  ["c1ccc(CSc2nnc(-c3ccc4nc(-c5ccccc5)[nH]c4c3)o2)cc1", "false (0)"],
  ["O=C(OCCOCCO)N(c1cccc(Br)c1)c1nc(SCCN2CCOCC2)nc2c1cnn2CC(Cl)c1ccc(Br)cc1 (stereo unspecified)", "true (1)"],
  ["COc1ccc(C(=O)NNC(=O)CSc2nc3sc4c(c3c(=O)n2-c2ccc(Cl)cc2)CCCC4)cc1", "false (0)"],
  ["CC1=C(C(=O)Nc2ccccc2)C(c2cccc(Cl)c2Cl)n2c(nc3ccccc32)N1 (stereo unspecified)", "false (0)"],
  ["CCCCNc1ccc2c3c(cccc13)C(=O)N(NCC(O)COc1ccc3c(C)cc(=O)oc3c1)C2=O (stereo unspecified)", "false (0)"],
  ["CS(=O)(=O)c1ccc(-n2nc(C(=O)NCc3ccccc3)cc2-c2ccc(Cl)cc2)cc1", "false (0)"],
  ["O=C(Cn1c(-c2ccccc2)nc2ccccc21)N=Nc1c(O)[nH]c2ccc(Br)cc12", "false (0)"],
  ["O=C(CSc1nc2sc3c(c2c(=O)n1-c1ccc(Cl)cc1)CCCC3)NNC(=O)c1ccc(Br)cc1", "false (0)"],
  ["Cc1cc(C2(c3cc(C)c(OCC(O)CNc4c(C)n(C)n(-c5ccccc5)c4=O)cc3C(C)C)OC(=O)c3ccccc32)c(C(C)C)cc1OCC(O)CNc1c(C)n(C)n(-c2ccccc2)c1=O (stereo unspecified)", "false (0)"],
  ["CC1=C(C(=O)OCc2ccccc2)C(c2cccc3ccccc23)n2c(nc3ccccc32)N1 (stereo unspecified)", "false (0)"],
  ["C=CCSc1nnc(-c2ccc(-c3nc4ccc(Cl)cc4[nH]3)cc2)o1", "false (0)"],
  ["COc1ccc(N=Nc2c(N)nn3c(N)c(C#N)c(-c4ccccc4)nc23)cc1", "false (0)"],
  ["C#CCN(C)CCCOc1ccc(N(CC)C(=O)c2cc(C(C)C)c(O)cc2O)cc1Cl", "true (1)"],
  ["Cc1ccccc1NC(=O)c1cccc(NC(=O)CCl)c1", "false (0)"],
  ["COc1ccc2[nH]c(=O)c(CSc3ccccc3Nc3nccc(-c4ccc(C(F)(F)F)cc4)n3)cc2c1", "true (1)"],
  ["COc1ccc(/C=C/C(=O)c2ccc(S(=O)(=O)NCCNc3nc(N(C)C)nc(N4CCOCC4)n3)cc2)cc1", "false (0)"],
  ["Cc1cc(C)c2[nH]c(=O)c(C(c3nnnn3Cc3ccc4c(c3)OCO4)N3CCN(C)CC3)cc2c1 (stereo unspecified)", "false (0)"],
  ["COc1ccc2[nH]c(=O)cc(-n3ncc(C(=O)/C=C/c4cc(OC)c(OC)c(OC)c4)c3C)c2c1", "true (1)"],
  ["FC(F)(F)CN1CCN(CCn2c(C(F)(F)F)cc3c(Cl)ncnc32)CC1", "true (1)"],
  ["Cc1ccc(/C=C/C(=O)c2ccc(S(=O)(=O)NCCNc3nc(N(C)C)nc(N4CCOCC4)n3)cc2)cc1", "true (1)"],
  ["COC(=O)c1c(C(=O)OC)c2c3ccccc3c3ccccc3n2c1C(=O)C(C)(C)C", "false (0)"],
  ["COc1cc2cc(C(=O)N3C[C@@H](CCl)c4c3cc(OC(=O)N(CCC(=O)N3CCN(C)CC3)C3CCCCC3)c3ccccc43)[nH]c2c(OC)c1OC", "true (1)"],
  ["COc1cc(C2CC(c3cc(OC)c(OC)c(OC)c3)=Nc3c(N)nc(N)nc3N2)ccc1Oc1nc(Nc2ccc(F)cc2)nc(N(C)C)n1 (stereo unspecified)", "false (0)"],
  ["CCC(=O)c1c2c(c3ccc4c5ccccc5ccc4n13)C(=O)c1ccccc1C2=O", "false (0)"],
  ["Cc1ccc(C(=O)Nc2cc(-c3ccncc3)cc(C(F)(F)F)c2)cc1C#Cc1cnc2cccnn12", "false (0)"],
  ["COc1sc(/C=N/NC(=O)c2[nH]c3ccc(Br)cc3c2-c2ccccc2)cc1Br", "true (1)"],
  ["COc1cncc(-c2ccc3ncnc(N4CCc5ccc(Cl)cc54)c3c2)c1", "true (1)"],
  ["Cc1ccc(C(=O)Nc2cc(-n3ccnc3C)cc(C(F)(F)F)c2)cc1C#Cc1cnc2cccnn12", "true (1)"],
  ["CS(=O)(=O)Nc1cc(-c2ccc3ncnc(N4CCc5cc(F)c(Cl)cc54)c3c2)cnc1Cl", "true (1)"],
  ["Fc1ccc(Nc2nnc(-c3c[nH]c4ccccc34)o2)cc1", "false (0)"],
  ["COc1ccc(-c2nc3ccccc3n2CC(=O)N=Nc2c(O)[nH]c3ccc(Br)cc23)cc1", "false (0)"],
  ["COC(=O)c1cc(C(C)=O)n2c3ccccc3c3ccccc3c12", "false (0)"],
  ["ClC(Cn1ncc2c(Nc3cccc(Br)c3)nc(SCCN3CCOCC3)nc21)c1ccc(Br)cc1 (stereo unspecified)", "true (1)"],
  ["COc1ccc2[nH]c(O)c(N=Nc3nc(-c4ccc(Cl)cc4)cs3)c2c1", "false (0)"],
  ["N#CC1=C(c2ccco2)Nc2c(c(-c3ccccc3)nn2-c2ccccc2)C12C(=O)Nc1ccc(Cl)cc12 (stereo unspecified)", "false (0)"],
  ["O=C1Nc2cc(-c3ccc(NS(=O)(=O)c4ccc(C(F)(F)F)cc4)cc3)ccc2/C1=C/c1ccc[nH]1", "false (0)"]
]}

Hey, just so you know, these numbers are from PubChem BioAssay (NCI).
